tested on: MCF7 breast; experiment: NCI tumour cell line growth inhibition, 48 h
Recorded TGI by entry

{"columns": ["Compound", "Bound Operator", "TGI [µM]"],
 "data": [
  ["CC(=O)NC1(C)C(C)C2CC1C(C)C2(C)C (stereo unspecified)", ">", 100],
  ["CC12OC(C(=O)C13CCC3)C1C(=O)c3ccc4c(ccc5ccccc54)c3C(=O)C12 (stereo unspecified)", "=", 30.7],
  ["CC/C(Cc1ccccc1)=C(/c1ccc(O)cc1)c1ccc(OCCN2CCCC2)cc1", "=", 2.22],
  ["[N-]=[N+]=Nc1ccc2c(c1)Sc1ccccc1N2CCCCN1CCN(C(=O)CCNC(=O)Cc2ccc(C(=O)c3ccccc3)cc2)CC1", "=", 5.78],
  ["CC1=C(C#N)C(/C=C(\\Cl)c2ccc(F)cc2)C(C#N)=C(C)N1", ">", 100],
  ["CN(C)c1ccc(/C=C(\\NC(=O)c2ccccc2)C(=O)NC(Cc2c[nH]c3ccccc23)C(=O)O)cc1 (stereo unspecified)", ">", 100]
]}

----------
system: HOP-62 NSCLC; test: NCI tumour cell line growth inhibition, 48 h; in the data active = GI50 below about 0.43 µM; inactive = the rest
Labels: y (active), n (inactive)

{"columns": ["Molecule", "Discrete Label"],
 "data": [
  ["COc1cc(CN(c2ccc(C)cc2)C2OC(=O)c3ccccc32)cc(OC)c1OC (stereo not drawn)", "n"],
  ["COc1cccc(NC(=O)c2sc3nc4c(cc3c2N)C(O)CCC4)c1 (stereo not drawn)", "y"],
  ["O=C1Nc2ccccc2/C1=C/c1cn(CC(O)Cn2cc(/C=C3\\C(=O)Nc4ccccc43)c3ccccc32)c2ccccc12 (stereo not drawn)", "n"]
]}

----------
Here the recorded TGI is given for each entry.
test system: 786-0 renal; assay: NCI tumour cell line growth inhibition, 48 h

{"columns": ["Smiles Notation", "TGI"],
 "data": [
  ["CC(C)(C)c1nc(-c2cccc(NS(=O)(=O)c3c(F)cccc3F)c2F)c(-c2ccnc(N)n2)s1", "> 100 µM"],
  ["CCN(CC)c1ccc(/C=N/NC(=O)CSc2nc3ccccc3c(=O)n2Cc2ccc(S(N)(=O)=O)cc2)c(O)c1", "> 100 µM"],
  ["C[n+]1cn(-c2nc3ccccc3nc2[N-]S(=O)(=O)c2ccccc2)c2ccccc21", "> 100 µM"]
]}

----------
system: A498 renal; test: NCI tumour cell line growth inhibition, 48 h

{"columns": ["Compound", "Bound Operator", "TGI (µM)"],
 "data": [
  ["C=CCCC(=O)C(=[N+]=[N-])C(=O)CCC(=O)c1ccccc1", ">", 10],
  ["COc1cc(Nc2ncnc(Nc3ccc4c(n3)NC(=O)C(C)(C)O4)n2)cc(OC)c1OC", "=", 0.29],
  ["COc1ccc(CCN2C(=O)CC34C=CC(CC3C2=O)O4)cc1OC (configuration not stated)", ">", 100],
  ["COc1ccc(-c2nsc3c2NC(=O)CC3c2cccc(Cl)c2)cc1 (configuration not stated)", "=", 8.1],
  ["CCOc1cc(-c2nc3cc(F)ccc3s2)ccc1O", "=", 26.2],
  ["OC12c3ccccc3C1CCCCCC21OCCCO1 (configuration not stated)", ">", 100],
  ["C=CCN(CCN(CC=C)S(=O)(=O)c1ccc(C)cc1)S(=O)(=O)c1ccc(C)cc1", ">", 100]
]}

----------
system: MOLT-4 leukemia; assay: NCI tumour cell line growth inhibition, 48 h
Readout Label: TGI

{"columns": ["Compound", "Measured Value"],
 "data": [
  ["COc1cccc2nc3c(C(=O)NCCN(C)C)cccc3nc12", "15.1 µM"],
  ["C/C(=N\\NC(N)=S)c1sc(-n2nc(-c3ccccc3)cc2-c2ccccc2)nc1C", "> 100 µM"],
  ["COc1ccc(/C=C/C(=O)Oc2ccccc2OC)cc1", "3.44 µM"],
  ["S=C(CSc1ccccc1)Nc1cccc2ccccc12", "63.2 µM"],
  ["CCOC(=O)/C=C(/C(=O)OCC)n1ccc(=O)n(Cc2cnnn2CCCCOC(C)=O)c1=O", "> 100 µM"],
  ["O=C(Nc1ccc2c(c1)OCCO2)C(=O)c1c[nH]c2ccccc12", "> 100 µM"],
  ["CC1(C)C(=O)C(=Cc2ccco2)C1=O", "> 100 µM"],
  ["CC(=O)NC1(C)C(C)C2CC1C(C)C2(C)C (centres undefined)", "> 100 µM"],
  ["Cc1cc(N(CCC#N)CCC#N)ccc1/C(N=Nc1ccc([N+](=O)[O-])cc1)=N\\NC(=O)c1ccccc1", "> 100 µM"]
]}

----------
test system: T-47D breast; assay: NCI tumour cell line growth inhibition, 48 h; in the data active = GI50 below about 0.43 µM; inactive = the rest
Outcomes: active, inactive

{"columns": ["Molecule", "Discrete Label"],
 "data": [
  ["Nc1ccc(-c2ccc3ncc4ccc(=O)n(-c5cccc(C(F)(F)F)c5)c4c3c2)cn1", "active"],
  ["Cc1noc(C)c1-c1cnc2c(-c3ccc(C(=O)O)cc3)cn([C@@H](C)c3ccccn3)c2c1", "inactive"],
  ["COc1cc(NC(C)CCCNC(C)C)c2ncccc2c1OC (stereo unspecified)", "inactive"],
  ["Cc1c(C)c2c(c(C)c1OCC(=O)O)CC[C@@](C)(CCC[C@@H](C)CCC[C@@H](C)CCCC(C)C)O2", "inactive"],
  ["O=C(Oc1ccccc1)C(Br)C(Br)c1ccccc1 (stereo unspecified)", "inactive"],
  ["CC/C(Cc1ccccc1)=C(/c1ccc(O)cc1)c1ccc(OCCN2CCCC2)cc1", "inactive"],
  ["CCOC(=O)C#Cc1c(C(=O)OCC)nnn1[C@@H]1O[C@H](CO)[C@H]2OC3(CCCCC3)O[C@H]21", "inactive"],
  ["C=C(CN1c2ccccc2Sc2ccccc21)c1ccc(C(=O)Nc2ccccc2N)cc1", "inactive"],
  ["O=C(/C=C\\n1cnc(-c2cc(C(F)(F)F)cc(C(F)(F)F)c2)n1)N1CC(F)(F)C1", "inactive"],
  ["Cc1ccc(O)c(NC2=C(Cl)C(=O)N(Cc3ccccc3)C2=O)c1", "inactive"],
  ["CCc1nn2ncccc2c1-c1ccnc(NC2CC2)n1", "inactive"]
]}

----------
Measured TGI accompanies every entry in the list below.
system: A498 renal; assay: NCI tumour cell line growth inhibition, 48 h

{"columns": ["Compound", "Target Desc", "TGI"],
 "data": [
  ["CCc1nn2ncccc2c1-c1ccnc(NC2CC2)n1", "A498 renal", "> 25 µM"],
  ["CC1(C)OC2OC(COC(=O)c3ccc(C#N)cc3)C3OC(C)(C)OC3C2O1 (stereo not drawn)", "A498 renal", "> 75 µM"],
  ["Nc1nc2c(ccc3ccccc32)s1", "A498 renal", "> 100 µM"],
  ["C[C@H](NC(=O)c1c(C(F)F)nn(C)c1Oc1cccc(C(F)(F)F)c1)c1ccc(C(=O)O)cc1", "A498 renal", "> 100 µM"],
  ["CCNC(=S)NNC(=O)CSc1nc2ccc(I)cc2c(=O)n1Cc1ccccc1", "A498 renal", "> 78.2 µM"],
  ["C/C(O)=C(\\N=O)C(=O)NCc1ccccc1", "A498 renal", "> 100 µM"],
  ["CCOc1ccc(N=Cc2ccnc3ccccc23)cc1", "A498 renal", "> 100 µM"],
  ["C/C(CC(=O)Nc1ccc(NC(=O)C/C(C)=N\\NC(N)=O)cc1)=N/NC(N)=O", "A498 renal", "> 100 µM"]
]}

----------
system: NCI-H460 lung
Outcomes: active, inactive

{"columns": ["Compound", "Discrete Label"],
 "data": [
  ["Cc1nc(Sc2nc3ccc([N+](=O)[O-])cc3s2)sc1C", "inactive"],
  ["Cn1cc(C2=C(c3ccccc3C(F)(F)F)C(=O)NC2=O)c2ccccc21", "inactive"],
  ["Cc1ccc(O)c(NC2=C(Cl)C(=O)N(Cc3ccccc3)C2=O)c1", "inactive"],
  ["Nc1ccc(-c2ccc3ncc4ccc(=O)n(-c5cccc(C(F)(F)F)c5)c4c3c2)cn1", "active"],
  ["O=C1Nc2ccccc2/C1=C/c1cn(CC(O)Cn2cc(/C=C3\\C(=O)Nc4ccccc43)c3ccccc32)c2ccccc12 (configuration not stated)", "inactive"],
  ["O=C(CN(/C=C/C(=O)C(F)(F)F)c1ccccc1)c1ccc(Cl)cc1", "inactive"],
  ["NCCOc1ncccc1/C=C1\\c2ccccc2-c2ccc([N+](=O)[O-])cc21", "active"]
]}

----------
system: OVCAR-5 ovarian; assay: NCI tumour cell line growth inhibition, 48 h
// reported TGI for each item listed

{"columns": ["Molecule", "TGI"],
 "data": [
  ["CC12CCC(CC1(Cl)Cl)C2 (stereo not given)", "> 100 µM"],
  ["COC(=O)CNC(=O)CCC(C)[C@H]1CCC2C3C(C[C@H](OC(C)=O)[C@@]21C)[C@@]1(C)CCC2(C[C@H]1C[C@H]3OC(C)=O)OOC1(CCCCC1)OO2 (stereo not given in full)", "6.62 µM"],
  ["COC(=O)/C(=C/c1ccc(OC)cc1)C(C(=O)O)=C1CCCCC1", "> 100 µM"],
  ["COc1ccc2nc3cccc([N+](=O)[O-])c3c(NCCNCCN(C)C)c2c1", "0.467 µM"],
  ["CCOc1ccc(N=Cc2ccnc3ccccc23)cc1", "> 100 µM"],
  ["O=C(/C=C\\n1cnc(-c2cc(C(F)(F)F)cc(C(F)(F)F)c2)n1)N1CC(F)(F)C1", "> 25 µM"],
  ["COc1cc(OC)c(OC)cc1/C=C/c1cc[n+](C)c2ccccc12", "> 100 µM"],
  ["O=C1C(Cl)=C(NCCF)C(=O)c2ncccc21", "3.29 µM"],
  ["COc1ccc(-c2nsc3c2NC(=O)CC3c2cccc(Cl)c2)cc1 (stereo not given)", "> 100 µM"],
  ["S=C(CSc1ccccc1)Nc1cccc2ccccc12", "> 100 µM"]
]}
